Assayed system: BRD4 BD2 (Homo sapiens)
Assay comment: AlphaScreen binding assay, BRD4 Bromodomain 2
# Lookup of reported IC50 keyed by entry

> print(dat)
                                        smi      meas.value
1  CC(=O)N1c2ccc(-c3cnn(C4CCC4)c3)cc2N(C(=O)OC2CCCC2)C[C@@H]1C       < 0.05 µM
2  CC(=O)N1c2ccc(-c3ccc(S(=O)(=O)CC4CC4)cc3)cc2N(C(=O)OC2CCCCC2)C[C@@H]1C  0.05 to 0.5 µM
3  CC(C)OC(=O)N1C[C@H](C)N(C(=O)C2CC2)c2ccc(-c3cnn(C4CCOCC4)c3)cc21  0.05 to 0.5 µM
4  CC(=O)N1c2ccc(-c3cnn(C4COC4)c3)cc2N(C(=O)Oc2ccncc2)C[C@@H]1C       < 0.05 µM

QUERY: Consider the compound shown here: `CC(=O)N1c2ccccc2N(C(=O)COc2ccc(F)cc2)C[C@@H]1C` What is its recorded IC50?
RESULT: > 0.5 µM

QUERY: Consider the compound shown here: `COC(=O)N1c2ccc(-c3ccc(NS(C)(=O)=O)cc3)cc2N(C(=O)Oc2ccccn2)C[C@@H]1C` What is its recorded IC50?
RESULT: 0.05 to 0.5 µM

QUERY: For the compound `CC(=O)N1c2ccccc2N(C(=O)c2cccc(Cl)c2)C[C@@H]1C` , what IC50 is on record?
RESULT: > 0.5 µM

QUERY: // IC50 lookup, key: `CCOC(=O)N1C[C@H](C)N(C(C)=O)c2ccc(-c3cccc(S(N)(=O)=O)c3)cc21`
RESULT: 0.05 to 0.5 µM

====

Assayed system: BRD4 BD1 (Homo sapiens, UniProt O60885)
Assay comment: AlphaScreen binding assay, BRD4 Bromodomain 1
pIC50: −log10 of the molar value.
This listing pairs compounds with measured pIC50.

> print(dat)
                                   compound  readout    meas.value
1  CC(=O)N1c2ccc(-c3ccc(S(C)(=O)=O)cc3)cc2N(C(=O)c2csnn2)C[C@@H]1C    pIC50  5.00 to 6.00

QUERY: // returns reported pIC50 for input `CC(=O)N1c2ccc(-c3cnn(C4CC4)c3)cc2N(C(=O)Oc2ncccc2C(F)(F)F)C[C@@H]1C`
RESULT: < 5.00

QUERY: Quick one: pIC50 of `CC(=O)N1c2ccc(-c3ccc(N4CCS(=O)(=O)CC4)cc3)cc2N(C(=O)c2ccco2)C[C@@H]1C` ?
RESULT: 6.00 to 7.00

QUERY: Look up pIC50: `CC(=O)N1c2ccc(-c3cnn(C4CS(=O)(=O)C4)c3)cc2N(C(=O)C2CC2)C[C@@H]1C`
RESULT: 5.00 to 6.00

QUERY: // query pIC50 value for entry `COC(=O)N1c2ccc(-c3ccc(C(=O)N4CC(O)C4)cc3)cc2N(C(=O)OC(C)C)C[C@@H]1C`
RESULT: 6.00 to 7.00

QUERY: Name the reported pIC50 value associated with the compound `CCNC(=O)Cn1cc(-c2ccc3c(c2)N(C(=O)OC(C)C)C[C@H](C)N3C(C)=O)cn1`
RESULT: 6.00 to 7.00

====

Assayed system: BRD4 BD2 (Homo sapiens)
Assay comment: AlphaScreen binding assay, BRD4 Bromodomain 2
Readout: IC50

# example entries with known answers
> print(dat)
                                   compound           assayed.system      meas.value
1  CC(=O)N1c2ccccc2N(Cc2ccc(C(C)C)cc2)C[C@@H]1C [Example I-892]  BRD4 BD2 (Homo sapiens)        > 0.5 µM
2  COC(=O)N1c2ccc(-c3cnn(C4CNC4)c3)cc2N(C(=O)Oc2cccnc2)C[C@@H]1C [Example I-1295]  BRD4 BD2 (Homo sapiens)  0.05 to 0.5 µM
3  CC(=O)N1c2ccc(-c3cnn(C4COC4)c3)cc2N(C(=O)OC2(C)CC2)C[C@@H]1C [Example I-76]  BRD4 BD2 (Homo sapiens)  0.05 to 0.5 µM

QUERY: Using the record for C[C@H]1CN(C(=O)c2ccco2)c2cc(-c3ccc(S(C)(=O)=O)cc3)ccc2N1C=O [Example I-103] , report its IC50.
RESULT: > 0.5 µM

QUERY: Reported IC50 for CNS(=O)(=O)c1cccc(-c2ccc3c(c2)N(C(=O)OC2CCOCC2)C[C@H](C)N3C(C)=O)c1 [Example I-1254] : what is it?
RESULT: 0.05 to 0.5 µM

QUERY: What value of IC50 has been recorded for this entry: CC(=O)N1c2ccc(-c3ccc(S(C)(=O)=O)cc3)cc2N(C(=O)c2cn(C)cn2)C[C@@H]1C [Example I-881]
RESULT: > 0.5 µM

QUERY: Form field: reported IC50 of CC(=O)N1c2ccc(-c3cc[nH]n3)cc2N(C(=O)c2ccco2)C[C@@H]1C [Example I-14]
RESULT: < 0.05 µM

QUERY: Find the recorded IC50 belonging to CC(=O)N1c2ccccc2N(C(=O)C2CCCCC2)C[C@@H]1C [Example I-697] and report it.
RESULT: > 0.5 µM

QUERY: Query (compound): CC(=O)N1c2ccc(-c3ccc(-c4nnco4)cc3)cc2N(C(=O)c2ccco2)C[C@@H]1C [Example I-416] ; field requested: IC50
RESULT: < 0.05 µM

QUERY: # input compound: C[C@H]1CN(C(=O)c2ccco2)c2cc(-c3ccc(S(C)(=O)=O)cc3)ccc2N1C(=O)C1CC1 [Example I-364] ; wanted: its IC50
RESULT: < 0.05 µM

QUERY: Could you share which IC50 value was measured for COc1ccc(OC)c(S(=O)(=O)N2C[C@H](C)N(C(C)=O)c3ccccc32)c1 [Example I-930] ?
RESULT: > 0.5 µM
